Measured Minimum inhibitory concentration on Propionibacterium acnes by item
Test system: Propionibacterium acnes
assayInfo: Minimum inhibitory concentration on Propionibacterium acnes (liquid culture)
Type: cell-based
runConditions: anaerobic, 37° C., 24 to 48 hours
Report the value in µg/mL with no unit label.

[[record]]
substance = "HPA3NT3: antimicrobial peptide HPA3NT3, FKRLKKLFKKKKIWNWK [reference compound]"
assaytarget = "Propionibacterium acnes"
unittext = "µg/mL"
recordedvalue = 2


q: Item under review: Example 2: LSKWLKKLGKLLAG (designated as AMP33) . Reported Minimum inhibitory concentration on Propionibacterium acnes?
a: 4

q: Try this substance next: Example 1: GIFKKITGKLFKWIK (designated as AMP5)
a: 8

q: Try this substance next: FK13: antimicrobial peptide FK13, FPLTWLKWWKWKKK [reference compound]
a: 4
